Kindly supply the reported soluble fraction (log2) values for the records listed here.
Assay notes: soluble fraction after stress (log2 fold change); higher = more stays soluble; pooled small domains, quantitative proteomics;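 also: 20 min heating vs room temperature control held 20 min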
Conditions: stress: 75 degC
Give bare numbers.

| Biosequence | soluble fraction (log2) |
| --- | --- |
| HMGNWEQQLRSWADGELATGKQDILTTAVPAFERALIETALSHTNGRKRDAAELLGWGRNTLTRKLKELGM | -0.401 |

Dear reader, for each entry below, please note its soluble fraction (log2).
1. HMGNIIITPNPASDFIKIISNSPIIKFGFYDIYGNTINKKFNDNSINISDLPVGMYLINLNERYFKLLK
2. HMTWDSFIGYTVTDVQKGYLGEITDVDETTINVLLRVDHKGEELLIPAVEELITEADHEARSLTVSLPEGL

output:
1: -0.259; 2: -0.398

Dear reader, for each entry below, please note its soluble fraction (log2).
1. HMDSAFVSDIRDAFDEAGVDSYRFFGTHSFKRGGVQLYRLLGVSDQEIKERGHWQTFSAYFAYVQA
2. HMRVGADLTQRERELLALMAQGMSNQEIAKRLEIAVPTVKFHITNILDKLQVGNRTEAVIAALEHKLVP

output:
1: 0.164; 2: -0.704
